assayExplanation: NCI Yeast Anticancer Drug Screen. Data for the mec2-1 strain (AID 157)
studyConditions: S. cerevisiae mec2-1 strain, at 50.0 µM
This is part of a sample that, as a whole, favours compounds with a hit. Of some 79,000 tested, about 15% had one in any assay. Active and inactive are the calls of the source. Cut-off read from the data, not from the text of the source: active = growth inhibition above about 70%; inactive = the rest.
Give one outcome, nothing more. List: True (active), False (inactive)

These solved cases illustrate the format of a correct answer.
Called result for CC(=O)O[C@H]1CC[C@H]2[C@@H]3CCC4=CC(=O)CC[C@@H]4[C@H]3CC[C@]12C
True

Which outcome was assigned to CC(C)(C)CC(C)(C)c1ccc(O)cc1 in this test?
True

Identify the outcome logged in this assay for the compound shown: CC(=O)[CH-]C(=O)c1ccccc1.CC(=O)[CH-]C(=O)c1ccccc1.C[C@]12CCC(=O)C=C1CC[C@@H]1C2CC[C@@]2(C)C1CC[C@@H]2[O-].C[C@]12CCC(=O)C=C1CC[C@@H]1C2CC[C@@]2(C)C1CC[C@@H]2[O-].Cl.[Ti+4] (some centres not stated)
True

Status in this test for NC(c1ccccc1)C(O)c1ccccc1 (configuration not stated) ?
False

Dear all, I need the recorded test outcome for CSC(=Nc1ccccc1)N(c1ccccc1)c1nc(=[N+](C)C)ss1 , thank you.
True

---
State the result this test recorded for O=C(O)Cc1ccc2c(c1)OCO2.[Ag] .
True

Tell me the recorded outcome of this test for CC[C@@]1(O)C(=O)OCc2c1cc1n(c2=O)Cc2cc3cc4c(cc3nc2-1)OCO4 .
True

====

assayExplanation: NCI Yeast Anticancer Drug Screen. Data for the bub3 strain (AID 167)
studyConditions: S. cerevisiae bub3 mutant strain, at 3.7 µM, stronger effect = higher value
This is part of a sample that, as a whole, favours compounds with a hit. Of some 79,000 tested, about 15% had one in any assay.
readoutType: growth inhibition (%)
Give the number; % is assumed, so skip it.

Measured growth inhibition, C/C(=N\N=C(N)N)C(CN1CCOCC1)C(c1ccccc1)c1c(O)c2ccccc2oc1=O (stereo not drawn) : 4

Per the record, OCC(O)C(O)CO (stereo not drawn) (tested in a mixture with another compound) has growth inhibition of -4

Record CNCC(O)c1ccc(O)c(O)c1.[Pt].c1ccc([PH+](c2ccccc2)c2ccccc2)cc1.c1ccc([PH+](c2ccccc2)c2ccccc2)cc1 , field growth inhibition: 1

Given item O=C(Nc1cc(Cl)ccc1Cl)C(Cl)(Cl)Cl , the value recorded as its growth inhibition is 3

Reported growth inhibition ( C[CH2][Sn]([CH2]C)([O]S(C)(=O)=O)[O]S(C)(=O)=O ) = -25

According to the records, this molecule CCS(=O)(=O)[O][Sn]([CH2]C)([CH2]C)[O]S(=O)(=O)CC displays growth inhibition of -9

Lab book: growth inhibition of CCCCCCCCCCCCCCCCP(=O)(O)OP(=O)(O)OCC1OC(n2ccc(N)nc2=O)C(O)C1O (stereo not drawn) noted as -2

====

assayExplanation: NCI Yeast Anticancer Drug Screen. Data for the bub3 strain (AID 167)
studyConditions: S. cerevisiae bub3 mutant strain, at 50.0 µM (retest, dose inferred, filed as 5.0), stronger effect = higher value
Procedure: Growth inhibition of yeast strains with defined genetic alterations is measured as a screen for potential anti-cancer activity. Selected strains with alterations in DNA damage repair or cell cycle control were exposed to compounds and growth inhibition was measured relative to vehicle treated controls. The strain used in this assay is bub3
This is part of a sample that, as a whole, favours compounds with a hit. Of some 79,000 tested, about 15% had one in any assay.
readoutType: growth inhibition (%)
A number alone suffices; assume %.

Reported growth inhibition ( Cc1oc2c([N+](=O)[O-])cccc2c1[N+](=O)[O-] ) = 99

Further cases:
Record CCC[CH2][Sn]([F])([CH2]CCC)[O][Sn]([F])([CH2]CCC)[CH2]CCC . Reported growth inhibition: 96

# growth inhibition of C[CH2][Sn]([Cl])([CH2]C)[O][Sn]([CH2]C)([CH2]C)[O][Sn]([Cl])([CH2]C)[CH2]C = 89

Kindly note the recorded growth inhibition for OC1(c2ccccc2)CC2CCC(C1)N2CCCC(O)(c1ccccc1)c1ccccc1 (centres undefined) , which is 67
